- tgt: F508delCFTR (Homo sapiens, UniProt P13569, DEL508-508)
- Construct: expressed in transfected cells; host or cells: CFBE41o- human lung-derived epithelial cells (CFBE4lo-F508delCFTR-HRP), doxycycline-inducible
- Sequence (P13569 with tags, fused parts or gaps DEL508-508): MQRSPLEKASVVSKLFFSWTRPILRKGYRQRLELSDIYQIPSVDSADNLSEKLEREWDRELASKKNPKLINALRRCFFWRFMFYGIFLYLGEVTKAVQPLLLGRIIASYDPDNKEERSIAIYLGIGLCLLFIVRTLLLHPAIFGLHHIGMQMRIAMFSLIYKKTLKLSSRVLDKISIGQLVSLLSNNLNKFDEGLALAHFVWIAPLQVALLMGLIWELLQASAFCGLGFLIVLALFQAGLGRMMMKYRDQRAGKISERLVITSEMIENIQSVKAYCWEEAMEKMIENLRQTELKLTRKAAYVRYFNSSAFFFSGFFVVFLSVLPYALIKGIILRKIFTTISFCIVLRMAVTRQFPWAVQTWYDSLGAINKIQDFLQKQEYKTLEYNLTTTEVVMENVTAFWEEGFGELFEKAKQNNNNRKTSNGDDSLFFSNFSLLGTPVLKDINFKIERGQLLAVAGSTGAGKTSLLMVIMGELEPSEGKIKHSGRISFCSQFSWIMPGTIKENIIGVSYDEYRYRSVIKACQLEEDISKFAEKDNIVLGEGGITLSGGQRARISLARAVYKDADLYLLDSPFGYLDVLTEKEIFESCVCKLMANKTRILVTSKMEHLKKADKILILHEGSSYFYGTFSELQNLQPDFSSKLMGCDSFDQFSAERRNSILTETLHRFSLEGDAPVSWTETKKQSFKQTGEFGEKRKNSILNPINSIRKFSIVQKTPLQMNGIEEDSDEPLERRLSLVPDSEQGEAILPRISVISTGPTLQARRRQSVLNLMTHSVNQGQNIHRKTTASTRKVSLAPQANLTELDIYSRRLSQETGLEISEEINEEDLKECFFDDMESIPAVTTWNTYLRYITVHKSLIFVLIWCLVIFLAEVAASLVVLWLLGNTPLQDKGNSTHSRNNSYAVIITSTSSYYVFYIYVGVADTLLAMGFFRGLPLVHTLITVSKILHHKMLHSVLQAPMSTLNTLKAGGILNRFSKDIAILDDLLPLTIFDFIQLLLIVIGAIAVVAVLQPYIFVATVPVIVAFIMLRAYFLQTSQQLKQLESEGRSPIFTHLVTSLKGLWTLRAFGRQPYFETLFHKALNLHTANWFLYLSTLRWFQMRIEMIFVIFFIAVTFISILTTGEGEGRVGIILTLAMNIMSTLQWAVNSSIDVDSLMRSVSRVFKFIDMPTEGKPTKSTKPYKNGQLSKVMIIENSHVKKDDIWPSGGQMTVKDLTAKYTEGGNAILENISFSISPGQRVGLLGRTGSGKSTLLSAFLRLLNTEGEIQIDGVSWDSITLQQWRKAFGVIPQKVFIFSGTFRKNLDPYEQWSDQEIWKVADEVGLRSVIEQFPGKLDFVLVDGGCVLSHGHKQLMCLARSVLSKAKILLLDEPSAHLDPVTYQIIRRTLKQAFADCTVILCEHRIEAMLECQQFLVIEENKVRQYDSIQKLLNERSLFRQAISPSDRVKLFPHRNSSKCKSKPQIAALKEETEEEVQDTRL
- methodSummary: Cell Surface Expression-Horse Radish Peroxidase (CSE-HRP) Assay;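 as to Maximum % activity (without co-corrector): percent of the 2 µM on-plate positive control corrector response above DMSO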
- Format: cell-based
- particulars: test compound without co-corrector; maximum at any tested concentration, normalized to on-plate positive control; read-out: Maximum % activity (without co-corrector)
Entries annotated with measured Emax

Consider the reported Emax for these compounds:
compound=COc1ccc(C(C)(C)C)cc1CN[C@H]1[C@H](C(C)(C)C)[C@@H](C(=O)O)N(C(=O)C2CCCC2)[C@H]1c1ccccc1 reading="> 200%"
compound=COc1ccc(C(C)(C)C)cc1CN[C@H]1[C@H](C(C)(C)C)[C@@H](C(=O)O)N(C(=O)Cc2ccc(Cl)cc2)[C@H]1c1ccccc1 reading="100 to 200%"
compound=COc1ccc(C23CC(C2)C3)cc1CN[C@H]1[C@H](C(C)(C)OC)[C@@H](C(=O)O)N(C(=O)OC(C)C)[C@H]1c1cccnc1N(C)C reading="> 200%"
compound="COc1ccc(C(C)(C)C)cc1CN[C@H]1[C@H](C(C)(C)C)[C@@H](C(=O)O)N(C(=O)[C@@H]2[C@@H](C(F)(F)F)[C@@H]3CC[C@H]2O3)[C@H]1c1ccccc1OC(F)F (relative stereo)" reading="100 to 200%"
compound=COc1ccc(C(F)(F)F)cc1CN[C@H]1[C@H](C(C)(C)C)[C@@H](C(=O)O)N(C(=O)OC(C)C)[C@H]1c1ccccc1C reading="> 200%"

Which Emax is reported with F508delCFTR (Homo sapiens, UniProt P13569, DEL508-508) for this entry: COc1nc(C(C)(C)C)ccc1CN[C@H]1[C@H](C(C)(C)C)[C@@H](C(=O)O)N(C(=O)[C@H]2CCCCO2)[C@H]1c1cccnc1N(C)C ?
< 100%

Which Emax is reported with F508delCFTR (Homo sapiens, UniProt P13569, DEL508-508) for this entry: COc1ncc(C(F)(F)F)cc1CN[C@H]1[C@H](C(C)(C)C)[C@@H](C(=O)O)N(C(=O)OC(C)C)[C@H]1c1ccccc1 ?
> 200%

Which Emax is reported with F508delCFTR (Homo sapiens, UniProt P13569, DEL508-508) for this entry: COc1ccc(C(F)(F)F)cc1CN[C@H]1[C@H](C(C)(C)OC)[C@@H](C(=O)O)N(C(=O)C2CCCCC2)[C@H]1c1cccnc1N(C)C ?
> 200%

Which Emax is reported with F508delCFTR (Homo sapiens, UniProt P13569, DEL508-508) for this entry: COc1ccc(CC2CCCCC2)cc1CN[C@H]1[C@H](C(C)(C)C)[C@@H](C(=O)O)N(C(=O)C2CCCCC2)[C@H]1c1ccccc1 ?
> 200%

Which Emax is reported with F508delCFTR (Homo sapiens, UniProt P13569, DEL508-508) for this entry: COc1ccc(C(C)(C)C)cc1CN[C@H]1[C@H](C(C)(C)C)[C@@H](C(=O)O)N(C(=O)c2ccc(Oc3ccccc3)cc2)[C@H]1c1cccnc1N(C)C ?
100 to 200%

###

- tgt: F508delCFTR (Homo sapiens, UniProt P13569, DEL508-508)
- Construct: expressed in transfected cells; host or cells: CFBE41o- human lung-derived epithelial cells (CFBE4lo-F508delCFTR-HRP), doxycycline-inducible
- methodSummary: Cell Surface Expression-Horse Radish Peroxidase (CSE-HRP) Assay
- Format: cell-based
- particulars: CSE-HRP; test compound without co-corrector; read-out: EC50 (without co-corrector)
pEC50: −log10 of the molar value.
Entries annotated with measured pEC50

Consider the reported pEC50 for these molecules:
molecule="COc1ncccc1NC1CC(N[C@H]2[C@H](C(C)(C)C)[C@@H](C(=O)O)N(C(=O)OC(C)C)[C@H]2c2ccccc2C2CC2)C1 (stereo partly drawn)" reading="5.00 to 6.00"
molecule=COc1ccc(C(C)(C)C)cc1CN[C@H]1[C@H](C(C)(C)C)[C@@H](C(=O)O)N(C(=O)Cc2ccccc2F)[C@H]1c1ccccc1 reading="> 6.00"
molecule=COc1ncc(C2CCCCC2)cc1CN[C@H]1[C@H](C(C)(C)OC)[C@@H](C(=O)O)N(C(=O)C2CCCCC2)[C@H]1c1ccccc1 reading="> 6.00"

// returns reported pEC50 for input COc1ccc(C(F)(F)F)cc1CN[C@H]1[C@H](C(C)(C)C)[C@@H](C(=O)O)N(C(=O)[C@H](OC)c2ccccc2)[C@H]1c1cccnc1N(C)C (racemic)
5.00 to 6.00

// returns reported pEC50 for input COc1ccc(C(F)(F)F)cc1CN[C@H]1[C@H](C(C)(C)OC)[C@@H](C(=O)O)N(C(=O)C2CCCCC2)[C@H]1c1ccccc1OC
5.00 to 6.00

###

- tgt: F508delCFTR (Homo sapiens, UniProt P13569, DEL508-508)
- Construct: expressed in transfected cells; host or cells: CFBE41o- human lung-derived epithelial cells (CFBE4lo-F508delCFTR-HRP), doxycycline-inducible
- methodSummary: Cell Surface Expression-Horse Radish Peroxidase (CSE-HRP) Assay;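 as to Maximum % activity (without co-corrector): percent of the 2 µM on-plate positive control corrector response above DMSO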
- Format: cell-based
- particulars: CSE-HRP; without co-corrector; maximum at any tested concentration, normalized to on-plate positive control; read-out: Maximum % activity (without co-corrector)
- Method: Cell Surface Expression-Horse Radish Peroxidase (CSE-HRP) Assay The development was achieved by expressing the F508delCFTR mutation along with a horseradish peroxidase (HRP) in the fourth exofacial loop, and then measuring the HRP activity using luminescence readout from these cells, CFBE4lo-F508delCFTR-HRP, that were incubated overnight with the test corrector compounds, either without or with the co-corrector. […] The raw counts from the experiment were analyzed using Accelrys® Assay Explorer v3.3. […]
readout: Emax

compound=COc1cc2c(cc1CN[C@H]1[C@H](C(C)(C)C)[C@@H](C(=O)O)N(C(=O)C3CCCCC3)[C@H]1c1ccccc1)OCO2 tgt="F508delCFTR (Homo sapiens, UniProt P13569, DEL508-508)" reading="100 to 200%"
compound="COc1ccc(Cl)cc1CN[C@@H]1[C@@H](C(C)(C)C)[C@H](C(=O)O)N(C(=O)C2CCOC(C)(C)C2)[C@@H]1c1ccccc1N(C)C (mixture of isomers)" tgt="F508delCFTR (Homo sapiens, UniProt P13569, DEL508-508)" reading="> 200%"
compound=CC(C)c1ccccc1CN[C@H]1[C@H](C(C)(C)C)[C@@H](C(=O)O)N(C(=O)C2CCCCC2)[C@H]1c1ccccc1 tgt="F508delCFTR (Homo sapiens, UniProt P13569, DEL508-508)" reading="100 to 200%"

// returns reported Emax for input COc1ccc(C(C)(C)C)cc1CN[C@H]1[C@H](C(C)(C)C)[C@@H](C(=O)O)N(C(=O)c2coc3ccccc23)[C@H]1c1ccccc1
< 100%

// returns reported Emax for input COc1cc(C(C)(C)C)ccc1CN[C@H]1[C@H](C(C)(C)C)[C@@H](C(=O)O)N(C(=O)C2CCCCC2)[C@H]1c1cccnc1OC
100 to 200%

// returns reported Emax for input COc1ccc(-c2cncc(F)c2)cc1CN[C@H]1[C@H](C(C)(C)C)[C@@H](C(=O)O)N(C(=O)C2CCCCC2)[C@H]1c1ccccc1
100 to 200%

// returns reported Emax for input COc1ccc(C(C)(C)C)cc1CN[C@H]1[C@H](C(C)(C)C)[C@@H](C(=O)O)N(C(=O)C(C)c2ccccc2)[C@H]1c1ccccc1 (stereo partly shown)
> 200%

###

Entries annotated with measured EC50
- tgt: F508delCFTR (Homo sapiens, UniProt P13569, DEL508-508)
- Construct: expressed in transfected cells; host or cells: CFBE41o- human lung-derived epithelial cells (CFBE4lo-F508delCFTR-HRP), doxycycline-inducible
- methodSummary: Cell Surface Expression-Horse Radish Peroxidase (CSE-HRP) Assay
- Format: cell-based
- particulars: test compound without co-corrector; read-out: EC50 (without co-corrector)

Consider the reported EC50 for these compounds:
compound="COc1ncc(C(F)(F)F)cc1CN[C@H]1[C@H](C(C)(C)C)[C@@H](C(=O)O)N(C(=O)[C@@H]2CCCCO2)[C@H]1c1ccccc1 [Example 21]" tgt="F508delCFTR (Homo sapiens, UniProt P13569, DEL508-508)" readout=EC50 reading="1 to 10 µM"
compound="COc1ccc(OC)c(CN[C@@H]2[C@@H](C(C)(C)C)[C@H](C(=O)O)N(C(=O)C3CCCCC3)[C@@H]2c2ccccc2)c1 (racemic) [III-11]" tgt="F508delCFTR (Homo sapiens, UniProt P13569, DEL508-508)" readout=EC50 reading="1 to 10 µM"
compound="COc1ncc(C(F)(F)F)cc1N[C@H]1[C@H](C(C)(C)C)[C@@H](C(=O)O)N(C(=O)C2C3CCCC32)[C@H]1c1cccnc1N(C)C (stereo partly drawn) [II-483]" tgt="F508delCFTR (Homo sapiens, UniProt P13569, DEL508-508)" readout=EC50 reading="1 to 10 µM"
compound="COc1ccc(C(F)(F)F)cc1CN[C@@H]1[C@@H](C(C)(C)C)[C@H](C(=O)O)N(C(=O)[C@H](OC)c2ccccc2)[C@@H]1c1ccccc1 [III-68]" tgt="F508delCFTR (Homo sapiens, UniProt P13569, DEL508-508)" readout=EC50 reading="> 10 µM"
compound="CCC(C)(O)CC(=O)N1[C@H](C(=O)O)[C@@H](C(C)(C)C)[C@H](NCc2cc(C(C)(C)C)ccc2OC)[C@@H]1c1ccccc1 (stereo partly drawn) [II-371]" tgt="F508delCFTR (Homo sapiens, UniProt P13569, DEL508-508)" readout=EC50 reading="1 to 10 µM"
compound="COc1ccc(C(C)(C)C)cc1CN[C@H]1[C@H](C(C)(C)C)[C@@H](C(=O)O)N(C(=O)[C@@H]2CCCCO2)[C@H]1c1ccccc1F [II-460]" tgt="F508delCFTR (Homo sapiens, UniProt P13569, DEL508-508)" readout=EC50 reading="1 to 10 µM"

// returns reported EC50 for input COc1ccc(OC(F)(F)F)cc1CN[C@H]1[C@H](C(C)(C)C)[C@@H](C(=O)O)N(C(=O)OC(C)C)[C@H]1c1ccccc1C(C)C [II-560]
1 to 10 µM

// returns reported EC50 for input COc1ncc(C(C)(C)C)cc1CN[C@H]1[C@H](C(C)(C)C)[C@@H](C(=O)O)N(C(=O)C2CCCCC2)[C@H]1c1cccnc1OC [Example I-135]
1 to 10 µM

// returns reported EC50 for input COc1ccc(C(C)(C)C)cc1CN[C@H]1[C@H](C(C)(C)C)[C@@H](C(=O)O)N(C(=O)C2Cc3ccccc3O2)[C@H]1c1cccnc1N(C)C (single isomer, unassigned) [II-421]
1 to 10 µM

// returns reported EC50 for input COc1ncc(C(F)(F)F)cc1CN[C@H]1[C@H](C23CC(C2)C3)[C@@H](C(=O)O)N(C(=O)OC(C)C)[C@H]1c1ccccc1 [III-221]
1 to 10 µM

// returns reported EC50 for input CC(C)N(C(=O)N1[C@H](c2ccccc2)[C@H](NCc2ccccc2OC(F)F)[C@@H](C)[C@@H]1C(=O)O)C(C)C (racemic) [III-34]
1 to 10 µM

// returns reported EC50 for input COc1ccc(C(C)(C)C)cc1CN[C@H]1[C@H](C(C)(C)C)[C@@H](C(=O)O)N(C(=O)N(C(C)C)C(C)C)[C@H]1c1ccccc1 [III-217]
> 10 µM
